tested on: gluthathione-S-transferase (GST, EC 2.5.1.18); assay: Spectrophotometric determination of EC 2.5.1.18 (GST) induction in PC-12 cells; assay type: cell-based; conditions: Rat PC-12 cells, 24 hours incubation; negative logarithm of molar concentration causing 50% induction of enzyme activity; CDNB and GSH substrates
endpoint-label: GST pEC50
Output spec: single numeric token, no unit.

I am curious: what GST pEC50 value has been reported for CN=c1ssc(=Nc2ccccc2C)n1C ?
5.8

Reported GST pEC50, molecule CCCCc1ccc(N=c2nc(N(C)C)ss2)cc1 : ____
5.2

Which GST pEC50 is listed for CN=c1ssc(=Nc2cccc(F)c2)n1C ?
5.6

Request the reported GST pEC50 associated with CN=c1ssc(=Nc2ccccc2)n1C
5.8

Fill blank: measured GST pEC50 of the molecule Cc1cccc(N=c2nc(N3CCOCC3)ss2)c1 is ____.
5.3

Return reported GST pEC50; argument: CN(C)c1nc(=Nc2ccc([N+](=O)[O-])cc2)ss1
5.4
